Origin of values: patent US20220281831A1

Target: His-tagged CRBN-DDB1 complex (Homo sapiens, UniProt Q96SW2)
Sequence (Q96SW2 whole entry): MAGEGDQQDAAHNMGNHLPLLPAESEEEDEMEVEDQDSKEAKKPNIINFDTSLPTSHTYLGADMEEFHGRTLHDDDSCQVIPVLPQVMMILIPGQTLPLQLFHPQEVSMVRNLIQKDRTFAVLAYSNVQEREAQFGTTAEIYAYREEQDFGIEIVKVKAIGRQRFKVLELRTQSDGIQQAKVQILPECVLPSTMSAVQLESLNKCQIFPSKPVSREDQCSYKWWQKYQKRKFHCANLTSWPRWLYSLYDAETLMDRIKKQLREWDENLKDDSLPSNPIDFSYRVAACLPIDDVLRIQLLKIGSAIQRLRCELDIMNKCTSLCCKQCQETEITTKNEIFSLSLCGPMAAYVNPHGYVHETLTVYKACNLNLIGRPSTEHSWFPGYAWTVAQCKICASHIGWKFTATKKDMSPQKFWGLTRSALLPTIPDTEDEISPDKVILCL
Sequence (Q16531 whole entry partner): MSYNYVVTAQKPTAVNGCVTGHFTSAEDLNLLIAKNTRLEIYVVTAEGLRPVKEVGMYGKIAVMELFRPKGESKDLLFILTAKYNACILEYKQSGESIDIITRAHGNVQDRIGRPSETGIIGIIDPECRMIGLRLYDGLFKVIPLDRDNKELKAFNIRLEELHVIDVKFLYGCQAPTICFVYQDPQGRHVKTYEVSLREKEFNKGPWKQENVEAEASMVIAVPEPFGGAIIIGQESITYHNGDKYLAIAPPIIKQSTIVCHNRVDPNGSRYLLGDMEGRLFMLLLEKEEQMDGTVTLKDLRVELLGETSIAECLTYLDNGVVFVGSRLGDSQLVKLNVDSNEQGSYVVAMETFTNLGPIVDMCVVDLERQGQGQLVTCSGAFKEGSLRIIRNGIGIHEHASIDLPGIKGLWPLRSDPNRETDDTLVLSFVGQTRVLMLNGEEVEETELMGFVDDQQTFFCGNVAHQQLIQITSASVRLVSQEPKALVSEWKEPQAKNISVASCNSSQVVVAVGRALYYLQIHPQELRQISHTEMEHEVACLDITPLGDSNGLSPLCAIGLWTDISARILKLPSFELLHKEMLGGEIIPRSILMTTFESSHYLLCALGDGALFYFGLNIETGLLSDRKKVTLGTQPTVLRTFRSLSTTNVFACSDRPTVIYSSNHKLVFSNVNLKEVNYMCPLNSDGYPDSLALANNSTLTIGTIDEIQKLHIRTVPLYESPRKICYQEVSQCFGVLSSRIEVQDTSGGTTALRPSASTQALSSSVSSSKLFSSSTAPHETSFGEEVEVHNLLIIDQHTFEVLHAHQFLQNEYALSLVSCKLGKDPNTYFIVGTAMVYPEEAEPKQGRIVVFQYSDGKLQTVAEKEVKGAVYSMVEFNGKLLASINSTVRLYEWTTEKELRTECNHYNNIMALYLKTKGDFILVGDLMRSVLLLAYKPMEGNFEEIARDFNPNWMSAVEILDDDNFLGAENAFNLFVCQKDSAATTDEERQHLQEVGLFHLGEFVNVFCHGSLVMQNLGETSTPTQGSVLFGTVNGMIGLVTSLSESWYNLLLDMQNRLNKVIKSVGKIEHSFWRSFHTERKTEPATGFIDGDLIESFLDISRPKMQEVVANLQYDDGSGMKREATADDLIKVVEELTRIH
Test: Time-Resolved Fluorescence Resonance Energy Transfer (TR-FRET / HTRF) CRBN binding assay, displacement of Cy5-labeled thalidomide
Details: His-CRBN-DDB1, Cy5-thalidomide 8 nM, 1 hour room temperature
# maps each entry to its IC50
ASSAY_READOUT: IC50

- O=C1Cc2cccc(Oc3ccccc3Cl)c2C(=O)N1: < 10 µM
- O=C1CC2(CCN(C3CCCC3)CC2)CC(=O)N1: > 100 µM
- Cc1ccc(CN2C[C@@H]3C(=O)NC(=O)[C@@H]3C2)o1: > 100 µM
- CC(C)(C)OC(=O)NCCCc1ccc(Oc2cccc3c2C(=O)NC(=O)C3)cc1: < 10 µM
- O=C1NC(=O)[C@@H]2CN(C(=O)c3cccs3)C[C@H]12: > 100 µM
- O=C1CC2(CCN(c3ccc(Oc4ccccc4)cc3)CC2)CC(=O)N1: 30 to 100 µM
- CC(C)(C)OC(=O)NCCCCCCCC#Cc1ccc(Oc2cccc3c2C(=O)NC(=O)C3)cc1: > 100 µM
- O=C1CC2(CCN(Cc3ccc(Oc4ccccc4)cc3)CC2)CC(=O)N1: > 100 µM
